// values below are reported IC50
Biological target: beta-catenin/TCF4 engagement (Homo sapiens, UniProt P35222)
Construct: expressed in transfected cells; host or cells: HEK293
Sequence (P35222 1-781): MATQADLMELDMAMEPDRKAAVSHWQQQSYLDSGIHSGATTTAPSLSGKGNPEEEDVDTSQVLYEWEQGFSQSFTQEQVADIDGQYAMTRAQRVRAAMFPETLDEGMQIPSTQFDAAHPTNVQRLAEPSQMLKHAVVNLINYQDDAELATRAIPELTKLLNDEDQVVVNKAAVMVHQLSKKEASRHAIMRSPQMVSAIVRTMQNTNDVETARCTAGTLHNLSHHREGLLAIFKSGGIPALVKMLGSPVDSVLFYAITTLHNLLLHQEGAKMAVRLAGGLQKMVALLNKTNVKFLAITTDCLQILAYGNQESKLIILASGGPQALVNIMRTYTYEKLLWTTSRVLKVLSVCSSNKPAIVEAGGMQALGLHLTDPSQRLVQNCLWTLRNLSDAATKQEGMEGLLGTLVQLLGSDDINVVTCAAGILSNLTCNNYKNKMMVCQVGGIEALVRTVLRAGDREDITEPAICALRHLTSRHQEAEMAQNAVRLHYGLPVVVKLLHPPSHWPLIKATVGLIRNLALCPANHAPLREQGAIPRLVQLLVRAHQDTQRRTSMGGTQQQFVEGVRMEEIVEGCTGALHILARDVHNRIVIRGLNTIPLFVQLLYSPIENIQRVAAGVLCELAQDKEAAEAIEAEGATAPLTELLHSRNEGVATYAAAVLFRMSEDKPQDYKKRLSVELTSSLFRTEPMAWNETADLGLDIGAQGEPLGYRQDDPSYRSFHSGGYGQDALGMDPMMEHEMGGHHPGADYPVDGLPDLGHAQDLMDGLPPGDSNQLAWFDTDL
Experiment: Nano-BRET target engagement assay (B-cat-Halo & TCF4-Luc in HEK293 cells)
Format: cell-based
Conditions: absolute IC50; read-out: NanoBRET Abs IC50

Check out these entries, answers already filled in.
| compound | system_tested | IC50 |
| --- | --- | --- |
| CC(=O)N1CCC[C@]12CC=CCCCC1(CCCC=CCCCOC(=O)N3CC[C@@](C(=O)N[C@@H](Cc4ccccc4C(F)(F)F)C(=O)N[C@@H](Cc4csc5ccccc45)C(=O)N[C@@H](CCC(=O)N4CCOCC4)C(N)=O)(C3)NC(=O)[C@H](CCC(=O)N3CCOCC3)NC(=O)[C@H](Cc3ccccc3)NC(=O)[C@H](C)NC(=O)[C@H](C)NC(=O)[C@H](Cc3cccc(C(=O)O)c3)NC(=O)[C@H](CC(=O)O)NC1=O)NC(=O)[C@H](CC(C)(C)C)NC(=O)[C@H](CC(=O)O)NC2=O (stereo partly drawn) [I-2547] | beta-catenin/TCF4 engagement (Homo sapiens, UniProt P35222) | 3.5 µM |
| CC(=O)N1CCC[C@]12CC=CCCCC1(CCCC=CCCCOC(=O)N3CC[C@@](C(=O)N[C@@H](Cc4ccccc4)C(=O)N[C@@H](Cc4csc5ccccc45)C(=O)N[C@@H](CCC(N)=O)C(N)=O)(C3)NC(=O)[C@H](CC(C)C)NC(=O)[C@H](Cc3ccccc3)NC(=O)[C@H](C)NC(=O)[C@H](CCO)NC(=O)[C@H](CCC(N)=O)NC(=O)[C@H](CC(=O)O)NC1=O)NC(=O)[C@H](CC1CCCCC1)NC(=O)[C@H](CC(N)=O)NC2=O (stereo partly drawn) | beta-catenin/TCF4 engagement (Homo sapiens, UniProt P35222) | > 20 µM |

Task: Give beta-catenin/TCF4 engagement (Homo sapiens, UniProt P35222) IC50 for CC(=O)N1CCC[C@]12CC=CCCCC1(CCCC=CCCCOC(=O)N3CC[C@@](C(=O)N[C@@H](Cc4ccccc4)C(=O)N[C@@H](Cc4csc5ccccc45)C(=O)N[C@@H](CCC(N)=O)C(N)=O)(C3)NC(=O)[C@H](Cc3ccccc3)NC(=O)[C@H](Cc3ccccc3)NC(=O)[C@H](C)NC(=O)[C@H](C)NC(=O)[C@H](CN(CC(=O)O)CC(F)(F)F)NC(=O)[C@H](CC(=O)O)NC1=O)NC(=O)[C@H](CC(C)(C)C)NC(=O)[C@H](CC(=O)O)NC2=O (stereo partly drawn)
Output: 13.9 µM
